B1: Histone H1t, residues 44 to 112; numbered along this chain, P22492 (parent)
chain: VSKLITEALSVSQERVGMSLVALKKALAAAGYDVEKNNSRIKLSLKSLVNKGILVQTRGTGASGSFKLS

variants of: B1; test: abundance fitness (aPCA) (normalised: wild type 0, dead -1); higher = more abundant; growth selection in yeast, the domain comes from the species named; conditions: Homo sapiens
Returns the class for an entry based on its abundance fitness. Class ranges: range A = under -0.4, range B = from -0.4 up to -0.3, range C = -0.3 and over

// known answers, use as guide
{"columns": ["MUTATION_LABEL", "LABEL_VALUE"],
 "data": [
  ["S39L", "range B"],
  ["K25M", "range A"],
  ["R58N", "range C"],
  ["G52R", "range A"],
  ["S39F", "range A"],
  ["G31A", "range C"],
  ["K36D", "range B"],
  ["A29C", "range C"],
  ["L27F", "range C"],
  ["K36Y", "range B"]
]}

Sort `I41H` into one of the categories.
range A

Sort `A28D` into one of the categories.
range C

Sort `L27Q` into one of the categories.
range A

Sort `G64N` into one of the categories.
range B

Sort `K24E` into one of the categories.
range B
